So I've got a bunch of compounds here, and I need their pIC50 values.
- study.system: human α1H T-type channels (Homo sapiens)
- Construct: expressed in transfected cells; host or cells: HEK 293
- Sequence (O95180 whole entry): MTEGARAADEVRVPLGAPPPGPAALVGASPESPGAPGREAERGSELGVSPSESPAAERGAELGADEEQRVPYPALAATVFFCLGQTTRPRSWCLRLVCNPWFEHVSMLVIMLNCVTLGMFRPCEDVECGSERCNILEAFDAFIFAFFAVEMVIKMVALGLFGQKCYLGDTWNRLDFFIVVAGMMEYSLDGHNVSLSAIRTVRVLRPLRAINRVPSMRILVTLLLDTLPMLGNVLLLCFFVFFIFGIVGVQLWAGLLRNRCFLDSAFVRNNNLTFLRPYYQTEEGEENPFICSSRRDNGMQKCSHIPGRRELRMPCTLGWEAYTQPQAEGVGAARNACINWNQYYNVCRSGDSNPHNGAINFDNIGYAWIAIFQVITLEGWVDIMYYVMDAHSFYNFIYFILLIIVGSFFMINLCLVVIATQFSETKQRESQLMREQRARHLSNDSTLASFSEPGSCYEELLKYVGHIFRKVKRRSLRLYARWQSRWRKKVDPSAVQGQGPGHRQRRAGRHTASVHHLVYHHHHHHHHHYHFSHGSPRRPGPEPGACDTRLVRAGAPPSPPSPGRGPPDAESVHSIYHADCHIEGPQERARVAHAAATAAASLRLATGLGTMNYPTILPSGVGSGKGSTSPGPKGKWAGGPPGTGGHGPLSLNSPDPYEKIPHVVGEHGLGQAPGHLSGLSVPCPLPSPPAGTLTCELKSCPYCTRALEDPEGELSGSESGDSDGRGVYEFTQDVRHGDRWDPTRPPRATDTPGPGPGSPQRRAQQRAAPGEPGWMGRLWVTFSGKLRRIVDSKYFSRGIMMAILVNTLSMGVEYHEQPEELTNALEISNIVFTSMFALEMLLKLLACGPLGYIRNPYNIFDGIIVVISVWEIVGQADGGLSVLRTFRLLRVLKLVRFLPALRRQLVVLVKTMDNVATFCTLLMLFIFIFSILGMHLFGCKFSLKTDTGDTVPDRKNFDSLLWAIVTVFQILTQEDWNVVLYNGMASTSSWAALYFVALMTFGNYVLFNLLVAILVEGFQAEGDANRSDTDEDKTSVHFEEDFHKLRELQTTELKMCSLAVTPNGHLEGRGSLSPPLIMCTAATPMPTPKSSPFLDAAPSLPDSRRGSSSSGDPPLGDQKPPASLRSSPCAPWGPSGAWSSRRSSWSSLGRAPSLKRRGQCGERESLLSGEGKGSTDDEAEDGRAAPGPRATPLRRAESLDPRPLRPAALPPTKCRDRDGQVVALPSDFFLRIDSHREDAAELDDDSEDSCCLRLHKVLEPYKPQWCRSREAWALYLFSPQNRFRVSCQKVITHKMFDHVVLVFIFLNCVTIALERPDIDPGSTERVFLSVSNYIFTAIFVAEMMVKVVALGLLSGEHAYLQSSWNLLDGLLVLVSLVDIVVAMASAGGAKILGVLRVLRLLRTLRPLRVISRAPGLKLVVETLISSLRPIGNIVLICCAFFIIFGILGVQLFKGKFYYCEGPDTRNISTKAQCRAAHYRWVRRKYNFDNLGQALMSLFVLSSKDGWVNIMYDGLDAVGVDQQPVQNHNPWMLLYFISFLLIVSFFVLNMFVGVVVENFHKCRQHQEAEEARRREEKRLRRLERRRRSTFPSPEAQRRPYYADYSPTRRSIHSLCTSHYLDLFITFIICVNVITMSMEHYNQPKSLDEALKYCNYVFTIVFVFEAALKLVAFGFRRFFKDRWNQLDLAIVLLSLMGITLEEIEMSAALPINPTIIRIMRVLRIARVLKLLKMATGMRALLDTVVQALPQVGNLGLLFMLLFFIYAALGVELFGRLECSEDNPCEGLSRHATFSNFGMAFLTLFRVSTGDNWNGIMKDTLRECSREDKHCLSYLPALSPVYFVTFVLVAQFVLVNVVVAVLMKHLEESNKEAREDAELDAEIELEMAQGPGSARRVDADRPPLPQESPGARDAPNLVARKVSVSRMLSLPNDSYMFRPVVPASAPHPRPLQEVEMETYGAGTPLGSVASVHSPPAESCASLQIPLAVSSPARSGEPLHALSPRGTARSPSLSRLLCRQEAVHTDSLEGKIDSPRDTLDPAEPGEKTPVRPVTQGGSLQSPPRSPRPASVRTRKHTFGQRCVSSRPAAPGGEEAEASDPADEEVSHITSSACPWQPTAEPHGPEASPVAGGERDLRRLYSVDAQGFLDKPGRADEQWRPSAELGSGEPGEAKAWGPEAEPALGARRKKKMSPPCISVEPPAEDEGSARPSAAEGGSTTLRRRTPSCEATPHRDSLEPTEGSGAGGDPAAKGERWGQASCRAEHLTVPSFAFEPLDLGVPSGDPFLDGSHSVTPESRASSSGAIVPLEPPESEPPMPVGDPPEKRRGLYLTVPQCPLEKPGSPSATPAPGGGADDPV
- experiment.description: T-type calcium channel block, whole cell patch clamp (α1H)
- Assay type: cell-based
- applied.conditions: HEK cells stably expressing human α1H; mainly non-inactivated protocol; values above 10 μM represented as 10 μM
Numbers only, as −log10 of the molar value.

Consider the reported pIC50 for these compounds:
CC(C)(C)OC(=O)NCCN[C@H]1CC[C@@H](CNC(=O)c2cc(C(F)(F)F)cc(C(F)(F)F)c2)CC1: 6.11
CC(C)(C)OC(=O)NCCN[C@H]1CC[C@@H](CNC(=O)c2cc(F)cc(C(F)(F)F)c2)CC1: 6.05
COc1cccc(O)c1CN[C@H]1CC[C@H](CNC(=O)c2cc(C(F)(F)F)cc(C(F)(F)F)c2)CC1: 6.15
CC(C)(C)OC(=O)NC1(CN[C@H]2CC[C@@H](CNC(=O)c3cc(C(F)(F)F)cc(C(F)(F)F)c3)CC2)CCCC1: 6.55
CCC(C)NC(=O)CN[C@H]1CC[C@@H](CNC(=O)c2cc(C(F)(F)F)cc(C(F)(F)F)c2)CC1 (some centres unmarked): 6.57
COc1cc(F)cc(C(=O)NC[C@H]2CC[C@H](NCC(=O)N3CCOCC3(C)C)CC2)c1: 5.36

Dear colleague, could you send me pIC50 for each of the items below? Thanks.
1. CC1(C)COCCN1C(=O)CN[C@H]1CC[C@H](CNC(=O)c2cc(F)cc(Cl)c2)CC1
2. O=C(NC[C@H]1CC[C@H](NCc2c(F)cccc2Cl)CC1)c1cc(C(F)(F)F)cc(C(F)(F)F)c1
3. O=C(NC[C@H]1CC[C@@H](NC(=O)[C@H]2CC[C@@H](c3ccccc3)N2)CC1)c1cc(C(F)(F)F)cc(C(F)(F)F)c1
4. CN(C(=O)CN[C@H]1CC[C@@H](CNC(=O)c2cc(F)cc(Cl)c2)CC1)C1(C)CCC1
5. O=C(NC[C@H]1CC[C@H](NCc2cccnc2F)CC1)c1cc(C(F)(F)F)cc(C(F)(F)F)c1
6. N[C@H]1CCCC[C@H]1C(=O)N[C@H]1CC[C@H](CC(=O)Nc2cc(C(F)(F)F)cc(C(F)(F)F)c2)CC1
7. CCN(CC)C(=O)CN[C@H]1CC[C@H](CNC(=O)c2cc(C(F)(F)F)cc(C(F)(F)F)c2)CC1
8. CCN(CC)C(=O)CN[C@H]1CC[C@@H](CNC(=O)c2cc(C(F)(F)F)cc(C(F)(F)F)c2)CC1

[5.67, 5.71, 5.15, 6.48, 5.01, 5.44, 6.23, 6.48]
